Each entry below carries its recorded shrunken log2 fold change.
Test system: Escherichia coli TOP10
Assay: shrunken log2 fold change of peptide-encoding DNA abundance (4.5 h post-induction vs induction); higher = less antimicrobial activity (less host growth inhibition)
Details: time post-induction: 4.5 h; library: site-saturation at positions 5, 18, 19, 20
Enter the number alone.

Worked examples, 5 sequences total:
[[record]]
sequencecontent = "RRIRCRPPRLPRPRPRPANSPRP"
readoutnumber = -0.685

[[record]]
sequencecontent = "RRIRPRPPRLPRPRPRPWMRPRP"
readoutnumber = 0.715

[[record]]
sequencecontent = "RRIRLRPPRLPRPRPRPGYVPRP"
readoutnumber = -0.17

[[record]]
sequencecontent = "RRIRDRPPRLPRPRPRPLVEPRP"
readoutnumber = 0.331

[[record]]
sequencecontent = "RRIRSRPPRLPRPRPRPLHFPRP"
readoutnumber = -0.17


Param readout= shrunken log2 fold change; system= Escherichia coli TOP10; entry= "RRIRCRPPRLPRPRPRPGVLPRP" ; returns value.
0.121

Param readout= shrunken log2 fold change; system= Escherichia coli TOP10; entry= "RRIRSRPPRLPRPRPRPCVNPRP" ; returns value.
-0.0338

Param readout= shrunken log2 fold change; system= Escherichia coli TOP10; entry= "RRIRYRPPRLPRPRPRPFQSPRP" ; returns value.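 Further: peptides expressed intracellularly from a pBAD plasmid library in pooled LB shake-flask culture, induced with 0.3% L-arabinose, DNA abundance read by NGS, three biological replicates, DESeq2 with apeglm shrinkage.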
-0.0418
